# assay_explanation: Single administration (acute) toxicity test on rats
# Assay type: in vivo
# condition_details: rat, in vivo; acute toxicity, rats; oral, subcutaneous, intraperitoneal and intravenous
observation_type: LD50

Inquiry: Quote LD50 reported for C[C@@H]([C@@H](C)O)[C@@H](O)C(=O)N[C@@](C)(CO)C(=O)O please.
Reply text: ≥ 500 mg/kg

* * *

# assay_explanation: Single administration (acute) toxicity test on rats
# Type: in vivo
# condition_details: in vivo; rat, oral
observation_type: LD50

Inquiry: Report measured LD50; entry is C[C@@H]([C@@H](C)O)[C@@H](O)C(=O)N[C@@](C)(CO)C(=O)O
Reply text: > 500 mg/kg
